- experimental_target: UniProtKB Q96RI1
- Sequence (whole entry): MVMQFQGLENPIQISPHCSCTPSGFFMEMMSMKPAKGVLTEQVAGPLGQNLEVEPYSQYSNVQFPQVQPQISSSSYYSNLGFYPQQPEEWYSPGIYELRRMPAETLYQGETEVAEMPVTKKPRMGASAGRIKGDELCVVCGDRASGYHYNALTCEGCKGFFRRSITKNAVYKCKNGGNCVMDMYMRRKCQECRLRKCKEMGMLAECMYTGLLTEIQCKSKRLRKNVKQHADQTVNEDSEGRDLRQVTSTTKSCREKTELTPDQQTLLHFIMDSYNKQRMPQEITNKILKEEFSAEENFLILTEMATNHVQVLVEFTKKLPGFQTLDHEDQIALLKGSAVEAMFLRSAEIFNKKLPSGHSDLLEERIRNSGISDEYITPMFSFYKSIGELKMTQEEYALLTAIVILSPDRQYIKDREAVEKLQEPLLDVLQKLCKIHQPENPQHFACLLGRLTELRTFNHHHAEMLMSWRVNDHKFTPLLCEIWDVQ
- experimental_details: Agonist activity at human FXR LBD transfected in african green monkey CV1 cells assessed as maximum efficacy after overnight incubation by luciferase reporter gene assay relative to GW4064
- Type: functional, cell-based
- conditions: CV-1
Let's look at some compounds and their measured Emax.
Quick note: give the figure in %, leave out the unit.

Record excerpt, results attached:
* CC(C)c1onc(-c2c(Cl)cccc2Cl)c1COc1ccc(Sc2cccc3sc(C(=O)O)cc23)cc1 | 59
* CC(C)c1onc(-c2c(Cl)cccc2Cl)c1COc1ccc(-c2ccc3c(c2)CC(C(=O)O)C3)cc1 (centres undefined) | 59
* CC(C)c1onc(-c2c(Cl)cccc2Cl)c1COc1ccc(-c2ccc3sc(C(=O)O)cc3c2)cc1 | 91

From here, focus on the item given below.
Look up UniProtKB Q96RI1 data: Emax of CC(C)c1onc(-c2c(Cl)cccc2Cl)c1COc1ccc(-c2ccc3oc(C(=O)O)cc3c2)cc1 , then report it.
90

====

- experimental_target: Bile acid receptor (Homo sapiens, UniProt Q96RI1)
- Sequence (Q96RI1 whole entry): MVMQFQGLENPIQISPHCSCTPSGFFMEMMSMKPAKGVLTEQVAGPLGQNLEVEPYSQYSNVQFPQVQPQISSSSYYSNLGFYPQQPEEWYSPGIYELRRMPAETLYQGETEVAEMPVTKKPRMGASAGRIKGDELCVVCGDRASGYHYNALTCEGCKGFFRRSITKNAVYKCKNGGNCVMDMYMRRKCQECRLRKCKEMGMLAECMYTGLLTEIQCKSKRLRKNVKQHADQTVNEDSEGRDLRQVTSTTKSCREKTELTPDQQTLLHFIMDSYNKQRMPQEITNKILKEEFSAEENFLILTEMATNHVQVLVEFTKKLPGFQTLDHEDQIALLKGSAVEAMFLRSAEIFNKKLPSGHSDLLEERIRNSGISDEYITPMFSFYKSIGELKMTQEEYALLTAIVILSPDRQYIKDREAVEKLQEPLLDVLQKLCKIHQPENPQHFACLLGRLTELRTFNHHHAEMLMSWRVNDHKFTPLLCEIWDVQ
- experimental_details: Agonist activity at human amino-terminal polyhistidine-tagged FXR alpha LBD (amino acids 237 to 472) assessed as cofactor peptide SRC-1 interaction with receptor ligand binding domain after 2 hrs by FRET assay
outcome_measure: log10 of EC50 (log10 of the value in nM)
Short version: log10 scale, EC50, nM.

- CC(C)c1onc(-c2c(Cl)cccc2Cl)c1COc1ccc(-c2ccc3[nH]c(C(=O)O)cc3c2)cc1: 1.94
- CC(C)c1onc(-c2c(Cl)cccc2Cl)c1COc1ccc(-c2ccc3c(C(=O)O)c[nH]c3c2)cc1: 1.30
- CC(C)c1onc(-c2c(Cl)cccc2Cl)c1COc1ccc(Cn2ccc3ccc(C(=O)O)cc32)cc1: 3.00
- CC(C)c1onc(-c2c(Cl)cccc2Cl)c1COc1ccc(-c2ccc3c(c2)CCCC3C(=O)O)cc1 (stereo not drawn): 2.74
- CC(C)c1onc(-c2c(Cl)cccc2Cl)c1COc1ccc(-c2ccc3sc(C(=O)O)cc3c2)cc1: 2.40

Complete the entry with log10 of EC50 for CC(C)c1onc(-c2c(Cl)cccc2Cl)c1COc1ccc(-c2ccc3c(C(=O)O)csc3c2)cc1
1.32

Complete the entry with log10 of EC50 for CC(C)c1onc(-c2c(Cl)cccc2Cl)c1COc1ccc(Sc2cccc3sc(C(=O)O)cc23)cc1
2.28

Complete the entry with log10 of EC50 for CC(C)c1onc(-c2c(Cl)cccc2Cl)c1COc1ccc(-c2ccc3cc(C(=O)O)[nH]c3c2)cc1
2.32
